Assay: cytotoxicity in Drosophila DL1 cells
Type: cell-based
Conditions: Drosophila, DL1 cells, 10 µM, replicate 1, relative to DMSO 1%; read-out: % viability, viability 1
Endpoint name: viability at 10 µM (%)
Give the quantity in %, number only.

stdin: viability at 10 µM for C=C1CCC2C(C)(CCC=C(C)C)C(O)CCC2(C)C1Cc1c(OC)oc(C)c(C)c1=O (stereo not shown) [Compound 11] ?
stdout: 20.5

====

Target: Aβ42 (Homo sapiens, UniProt P05067)
Sequence (P05067 672-713): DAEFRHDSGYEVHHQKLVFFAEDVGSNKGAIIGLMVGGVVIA
Experiment: Th-T (thioflavin-T) assay of Aβ42 aggregation
Format: biochemical
Settings: time-course reading M112; Supplementary Fig. 47 source data
Endpoint name: Th-T fluorescence, mean of three wells
Would you mind answering with just the numeric figure?

stdin: Endpoint output: Th-T fluorescence, mean of three wells of C=C1CCC2C3(C)CC(C=C(C)C)OC3CCC2(C)C1Cc1c(OC)oc(C)c(C)c1=O (centres unmarked) [Compound 23] . Value?
stdout: 3.8761

stdin: Which Th-T fluorescence, mean of three wells is listed for C=C1CCC2C(C)(CCC=C(C)C)C(O)CCC2(C)C1Cc1c(O)c(C)c(C)oc1=O (centres unmarked) [Compound 9, higginsianin B] ?
stdout: 2.812

stdin: Quick one: Th-T fluorescence, mean of three wells of C=C1CC[C@H]2[C@]3(C)C[C@H](C=C(C)C)O[C@H]3CC[C@]2(C)[C@@H]1Cc1c(OC)oc(CO)c(C)c1=O [Compound 18] ?
stdout: 3.848

stdin: What value of measured Th-T fluorescence, mean of three wells is listed for C=C1CCC2C(C)(CC(=O)C=C(C)C)C(O)CCC2(C)C1Cc1c(OC)oc(C)c(C)c1=O (centres unmarked) [Compound 25] ?
stdout: 3.629

stdin: Given the molecule C=C1CC[C@H]2[C@]3(C)C[C@H](C=C(C)C)O[C@H]3CC[C@]2(C)[C@@H]1Cc1c(OC)oc(C)c(C)c1=O [Compound 24] , what is its reported Th-T fluorescence, mean of three wells?
stdout: 3.941

stdin: Item under review: C=C1CC[C@H]2[C@]3(C)C[C@H](C=C(C)C)O[C@H]3CC[C@]2(C)[C@@H]1Cc1c(O)c(C)c(C)oc1=O [Compound 6, subglutinol B] . Reported Th-T fluorescence, mean of three wells?
stdout: 3.097

stdin: So what's the measured Th-T fluorescence, mean of three wells for this one? C=C1CCC2C(C)(CC(=O)C=C(C)C)C(O)CCC2(C)C1Cc1c(O)c(C)c(C)oc1=O (centres unmarked) [Compound 7]
stdout: 3.526

stdin: Need Th-T fluorescence, mean of three wells, item C=C1CC[C@@H]2[C@](C)(CC[C@H]3O[C@H](C=C(C)C)C[C@@]23C)[C@@H]1Cc1c(OC)oc(CO)c(C)c1=O [Compound 20]
stdout: 4.225

stdin: Any idea what Th-T fluorescence, mean of three wells was measured for CC(C)=CCC/C(C)=C/CC/C(C)=C/CC/C(C)=C/Cc1c(O)c(C)c(C)oc1=O [Compound 2] ?
stdout: 2.955

stdin: Quick one: Th-T fluorescence, mean of three wells of C=C1CCC2C(C)(CCC=C(C)C)C(O)CCC2(C)C1Cc1c(OC)oc(CO)c(C(=O)OC)c1=O (centres unmarked) [Compound 13] ?
stdout: 1.039

stdin: Given C=C1CC[C@H]2[C@]3(C)C[C@@H](C=C(C)C)O[C@H]3CC[C@]2(C)[C@@H]1Cc1c(O)c(C)c(C)oc1=O [Compound 5, subglutinol A] , state its recorded Th-T fluorescence, mean of three wells.
stdout: 2.691

stdin: Fill blank: measured Th-T fluorescence, mean of three wells of the molecule C=C1CCC2C(C)(CCC=C(C)C)C(O)CCC2(C)C1Cc1c(OC)oc(C)c(C(=O)OC)c1=O (centres unmarked) [Compound 14] is ____.
stdout: 1.658

stdin: // lookup Th-T fluorescence, mean of three wells for C=C1CCC2C(C)(CCC=C(C)C)C(O)CCC2(C)C1Cc1c(OC)oc(C)c(C)c1=O (centres unmarked) [Compound 11]
stdout: 3.484

stdin: I'd like to know its Th-T fluorescence, mean of three wells. The molecule in question is C=C1CC[C@@H]2[C@](C)(CC[C@H]3O[C@H](C=C(C)C)C[C@@]23C)[C@@H]1Cc1c(OC)oc(CO)c(C(=O)OC)c1=O [Compound 21]
stdout: 1.036
